Molecular target: T1, RBFOX1 RRM (Homo sapiens, UniProt Q9NWB1 109-208)
T1 sequence: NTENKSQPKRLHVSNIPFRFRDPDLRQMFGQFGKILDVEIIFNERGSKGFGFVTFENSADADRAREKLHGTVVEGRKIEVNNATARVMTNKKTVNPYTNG
Assay: EMSA; HiTS-Eq, 1 nM pool, 10 min; buffer printed only for the single-RNA assays: 10 mM Tris pH 7.5, 150 mM NaCl, 3.4 mM EDTA, 0.001% NP-40, 30 C
Conditions: tags: His6 N-terminal (pET28a); label: 5' 32P
The full ranking holds about 16,000 sequences; the median of “ka relative to ugcaugu” is about 0.0091, and the highest 2% start at about 0.032. The list comes from a sample in which the highest values are over-represented; it also holds close analogues and randomly drawn sequences.
READOUT_KIND: binding signal

Examples with answers:
The recorded binding signal for entry UAGCAUG (DNA:RNA) RNA: GGGAGACCGGAAUUCAGAUUGUCCUAGCAUGUUAAAUCCCGUCGUAGCCACCA DNA 1: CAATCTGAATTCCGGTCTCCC DNA 2: TGGTGGCTACGACGGGATT equals 0.795 KA relative to UGCAUGU

The recorded binding signal for entry AGCAUAA (DNA:RNA) RNA: GGGAGACCGGAAUUCAGAUUGUCCAGCAUAAUUAAAUCCCGUCGUAGCCACCA DNA 1: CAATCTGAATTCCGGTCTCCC DNA 2: TGGTGGCTACGACGGGATT equals 0.00471 KA relative to UGCAUGU

The recorded binding signal for entry CACCUAU (DNA:RNA) RNA: GGGAGACCGGAAUUCAGAUUGUCCCACCUAUUUAAAUCCCGUCGUAGCCACCA DNA 1: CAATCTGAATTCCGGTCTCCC DNA 2: TGGTGGCTACGACGGGATT equals 0.000316 KA relative to UGCAUGU

The recorded binding signal for entry UGGGCUG (DNA:RNA) RNA: GGGAGACCGGAAUUCAGAUUGUCCUGGGCUGUUAAAUCCCGUCGUAGCCACCA DNA 1: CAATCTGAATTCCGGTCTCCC DNA 2: TGGTGGCTACGACGGGATT equals 0.039 KA relative to UGCAUGU

Okay, next one:
The recorded binding signal for entry GUAUACA (DNA:RNA) RNA: GGGAGACCGGAAUUCAGAUUGUCCGUAUACAUUAAAUCCCGUCGUAGCCACCA DNA 1: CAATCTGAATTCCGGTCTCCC DNA 2: TGGTGGCTACGACGGGATT equals 0.00201 KA relative to UGCAUGU
